Assign pKa to each entry below.
conditions: basic group
Answers are plain numbers.

Worked examples, 2 molecules total:
CN=C1C(C)(C)c2ccccc2C1(C)C : 7
CCCCNc1ccccc1 : 5.11

Here are 7 molecules. What values of pKa were reported for them?
1. O=C([O-])c1cccc2cccnc12
2. Fc1ccccn1
3. Cc1nc(C)c(C)nc1C
4. NCC(N)=S
5. NC(=S)C1([NH3+])CCCCC1
6. Nc1ccc2cnccc2c1
7. CC(CO)CN(C)C (centres undefined)

Response:
1: 6.99; 2: -0.44; 3: 3.36; 4: 7.27; 5: -8.08; 6: 7.17; 7: 9.75
